test system: EKVX NSCLC; assay: NCI tumour cell line growth inhibition, 48 h
The reader will find reported TGI values listed item by item below.

Some solved cases for reference:
> print(dat)
                                   compound  attribute.measured  test.result
1  COc1ccc(C2SCC(=O)N2NC(=O)Nc2c(C)nc3ccccn23)cc1 (stereo not given)                 TGI     > 100 µM
2  CCNc1cc2c(cc1O)CC[C@@H]1[C@@H]2CC[C@]2(C)[C@@H](O)CC[C@@H]12                 TGI      34.8 µM
3  COC(=O)C1C(=O)C=CN([C@H](C)c2ccccc2)[C@@H]1Cc1ccc(OC)c(OCc2ccccc2)c1I (stereo not given in full)                 TGI     > 100 µM
4  COc1ccc(C2=Nn3c(nnc(Cc4ccc(Cl)cc4)c3=O)SC2)cc1                 TGI     > 100 µM

Now, please, on to the next compound.
input: Provide one value: measured TGI of COc1cc(OC)c2c(=O)c(OC)c(-c3ccc4c(c3)OCO4)oc2c1
output: > 100 µM
